Every entry's value here was drawn from ChEMBL document CHEMBL3875154.

- target-or-system: UniProtKB O00408
- Sequence (O00408 whole entry): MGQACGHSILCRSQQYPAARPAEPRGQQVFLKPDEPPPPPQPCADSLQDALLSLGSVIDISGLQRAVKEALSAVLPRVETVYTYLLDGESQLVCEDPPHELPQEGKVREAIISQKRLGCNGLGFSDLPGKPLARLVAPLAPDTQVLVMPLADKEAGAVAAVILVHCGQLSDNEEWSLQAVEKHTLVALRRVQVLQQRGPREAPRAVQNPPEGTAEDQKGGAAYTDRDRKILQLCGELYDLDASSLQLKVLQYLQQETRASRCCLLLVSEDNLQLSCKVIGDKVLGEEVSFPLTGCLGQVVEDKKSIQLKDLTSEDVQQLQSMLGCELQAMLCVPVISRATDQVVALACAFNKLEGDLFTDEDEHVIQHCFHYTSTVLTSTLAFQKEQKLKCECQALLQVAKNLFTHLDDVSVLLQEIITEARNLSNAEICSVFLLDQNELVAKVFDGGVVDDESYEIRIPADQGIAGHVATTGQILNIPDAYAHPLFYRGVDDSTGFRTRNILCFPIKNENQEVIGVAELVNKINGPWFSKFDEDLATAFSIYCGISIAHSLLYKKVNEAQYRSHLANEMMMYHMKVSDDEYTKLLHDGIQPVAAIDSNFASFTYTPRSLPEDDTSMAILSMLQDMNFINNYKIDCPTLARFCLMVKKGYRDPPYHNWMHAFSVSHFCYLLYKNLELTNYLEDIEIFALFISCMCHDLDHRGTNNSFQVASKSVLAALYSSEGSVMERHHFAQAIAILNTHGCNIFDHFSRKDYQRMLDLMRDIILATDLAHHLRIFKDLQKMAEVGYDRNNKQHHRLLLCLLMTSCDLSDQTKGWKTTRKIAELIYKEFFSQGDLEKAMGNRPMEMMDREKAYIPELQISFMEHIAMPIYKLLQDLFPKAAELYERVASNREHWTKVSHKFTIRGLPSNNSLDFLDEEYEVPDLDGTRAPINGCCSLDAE
- assay-comment: Inhibition of human PDE2A at 10^4 nM using FAM-3',5'-cAMP as substrate after 1 hr by fluorescence polarization assay relative to control
property: inhibition (%)

{"columns": ["sample-smiles", "inhibition (%)"],
 "data": [
  ["O=C(Nc1cccnc1)c1ccc(OC(F)F)c(OCC2CC2)c1", 23],
  ["O=C(Nc1cccnc1)c1ccc(OC(F)F)c(OC2CCCC2)c1", 26]
]}

[a] O=C(Nc1ccccc1Cl)c1ccc(OC(F)F)c(OC2CCCC2)c1
[b] O=C(Nc1ccccc1Cl)c1ccc(OC(F)F)c(OCC2CC2)c1
// query Kindly identify which of a and b has the larger recorded inhibition value. Indicate which entry you chose by stating its label.
// result a
